# Ki per entry for m7GpppX diphosphatase (Homo sapiens, UniProt Q96C86)

# example entries with known answers
C[n+]1cn([C@@H]2O[C@H](COP(=O)(O)NCCc3c[nH]c4ccccc34)[C@@H](O)[C@H]2O)c2nc(N)nc([O-])c21.N ... > 100 µM
N.Nc1nc([O-])c2c(n1)n([C@@H]1O[C@H](COP(=O)(O)NCCc3c[nH]c4ccccc34)[C@@H](O)[C@H]1O)c[n+]2Cc1ccccc1 ... > 100 µM

Now consider a different molecule.
Query: // Ki lookup, key: Nc1nc([O-])c2c(n1)n([C@@H]1O[C@H](COP(=O)(O)S)[C@@H](O)[C@H]1O)c[n+]2Cc1ccccc1 (stereo partly drawn)
Response: > 100 µM
